# ΔT1/2 (°C) FBCL-2T per entry
System: FBCL-2T
Assay: FRET-melting, FBCL-2T
Format: binding
Details: ligand 2 μM, DNA 0.2 μM, 10 mM KCl, 90 mM LiCl, pH 7.2
Description: FRET-melting experiments were conducted on a Stratagene MX3005P (Thermo Fisher Scientific, Illkirch-Graffenstaden, France) real-time PCR equipment in 96-well plates on the DNA sequences reported in Table 4. […] Data are presented as an average of three independent measurements, each conducted in duplicate conditions (λexc = 492 nm, λem = 516 nm, T interval = 25–95 °C, ramp: 25 °C for 5 min, then 1 °C/min, measurements every 1 °C, 8× magnification of the fluorescence signal).
Answer format: value, then unit.

Some solved cases for reference:
CN1CCN(CCCCNCc2ccc(-c3nc(-c4ccc(CNCCCCN5CCN(C)CC5)cc4)c4cccc(-c5ccccc5)c4n3)cc2)CC1 [Compound 12n] = 12.0 ± 2.0 °C
CN(C)CCCCCNCc1ccc(-c2nc(-c3ccc(CNCCCCCN(C)C)cc3)c3ccc(-c4ccccc4)cc3n2)cc1 [Compound 12h] = 18.2 ± 1.7 °C
CN(C)CCCNCc1ccc(-c2nc(-c3ccc(CNCCCN(C)C)cc3)c3cccc(-c4ccccc4)c3n2)cc1 [Compound 12k] = 9.5 ± 0.2 °C
CN(C)CCCCNCc1ccc(-c2nc(-c3ccc(CNCCCCN(C)C)cc3)c3ccc(-c4ccccc4)cc3n2)cc1 [Compound 12g] = 17.5 ± 0.6 °C
CN(C)CCCNCc1ccc(-c2cc(-c3ccc(CNCCCN(C)C)cc3)c3cc(-c4ccccc4)ccc3n2)cc1 [Compound 13a] = 7.7 ± 0.6 °C

ΔT1/2 (°C) FBCL-2T for CC1CN(CCCNCc2ccc(-c3cc(-c4ccc(CNCCCN5CCNC(C)C5)cc4)c4cc(-c5ccccc5)ccc4n3)cc2)CCN1 (stereo not shown) [Compound 13c] is 7.5 ± 0.5 °C

The recorded ΔT1/2 (°C) FBCL-2T for entry CN(C)CCCNCc1ccc(-c2nc(-c3ccc(CNCCCN(C)C)cc3)c3c(-c4ccccc4)cccc3n2)cc1 [Compound 12a] equals 7.4 ± 0.9 °C

###

# Kd per record follows
Molecular target: human telomeric sequence 24TTG
Experiment: Native electrospray mass spectrometry, 24TTG
Type: binding
Conditions: first binding event (1:1 complex); 10 µM DNA, 20 µM ligand; read-out: Kd1 24TTG
Method: These parameters ensured a good signal intensity without disrupting noncovalent complexes, which was verified using d[G4T4G4]2 as a control. Oligonucleotides were purchased lyophilized, and RP-cartridge purified from Eurogentec (Kanaka Eurogentec, Seraing, Belgium), then buffer exchanged with ammonium acetate (5 M; Sigma-Aldrich, Saint-Quentin-Fallavier, France) using Amicon Ultra (3 K cut-off; Merck Millipore, Cork, Ireland). […] Kd were calculated as already described.
Express the result in µM but write the number alone.

Worked cases, Kd given:
CN1CCN(CCCCNCc2ccc(-c3cc(-c4ccc(CNCCCCN5CCN(C)CC5)cc4)c4cc(-c5ccccc5)ccc4n3)cc2)CC1 [Compound 13d] = 29
CN(C)CCCNCc1ccc(-c2cc(-c3ccc(CNCCCN(C)C)cc3)c3cc(-c4ccccc4)ccc3n2)cc1 [Compound 13a] = 3.7
CN(C)CCCNCc1ccc(-c2nc(-c3ccc(CNCCCN(C)C)cc3)c3cc(-c4ccccc4)ccc3n2)cc1 [Compound 12b] = 9.5

Turning now to a further record.
Given item CN1CCN(CCCCNCc2ccc(-c3nc(-c4ccc(CNCCCCN5CCN(C)CC5)cc4)c4cc(-c5ccccc5)ccc4n3)cc2)CC1 [Compound 12e] , the value recorded as its Kd is 14

###

System: MCF-7
Test: MTT antiproliferative assay, MCF-7
Type: cell-based, human
Conditions: IC50 HEK293 / IC50 MCF-7
assay-metric: Selectivity Index HEK293/MCF-7

Record CN(C)CCCNCc1ccc(-c2nc(-c3ccc(CNCCCN(C)C)cc3)c3cc(-c4ccccc4)ccc3n2)cc1 [Compound 12b] . Reported Selectivity Index HEK293/MCF-7: >51.7

Memo: CN1CCN(CCCNCc2ccc(-c3nc(-c4ccc(CNCCCN5CCN(C)CC5)cc4)c4ccc(-c5ccccc5)cc4n3)cc2)CC1 [Compound 12i] , reported Selectivity Index HEK293/MCF-7: >44.8

Reported Selectivity Index HEK293/MCF-7 ( CN1CCN(CCCCNCc2ccc(-c3nc(-c4ccc(CNCCCCN5CCN(C)CC5)cc4)c4ccc(-c5ccccc5)cc4n3)cc2)CC1 [Compound 12j] ) = 8.45

Record CN(C)CCCNCc1ccc(-c2nc(-c3ccc(CNCCCN(C)C)cc3)c3ccc(-c4ccccc4)cc3n2)cc1 [Compound 12f] . Reported Selectivity Index HEK293/MCF-7: >51.7

Selectivity Index HEK293/MCF-7 in this record for CN(C)CCCNCc1ccc(-c2cc(-c3ccc(CNCCCN(C)C)cc3)c3cc(-c4ccccc4)ccc3n2)cc1 [Compound 13a] : >55.5

// recorded Selectivity Index HEK293/MCF-7 for CN(C)CCCCNCc1ccc(-c2nc(-c3ccc(CNCCCCN(C)C)cc3)c3ccc(-c4ccccc4)cc3n2)cc1 [Compound 12g] : 6.32

###

Target: c-MYC
Assay: Native electrospray mass spectrometry, c-MYC
Type: binding
Conditions: first binding event (1:1 complex); 10 µM DNA, 20 µM ligand; read-out: Kd1 c-MYC
assay-metric: pKd
Just so you know, pKd here is -log10 of the concentration in molar units; reply with that number alone.

CN1CCN(CCCCNCc2ccc(-c3cc(-c4ccc(CNCCCCN5CCN(C)CC5)cc4)c4cc(-c5ccccc5)ccc4n3)cc2)CC1 [Compound 13d] = 4.70
CN(C)CCCNCc1ccc(-c2nc(-c3ccc(CNCCCN(C)C)cc3)c3cc(-c4ccccc4)ccc3n2)cc1 [Compound 12b] = 5.24
CN1CCN(CCCCNCc2ccc(-c3nc(-c4ccc(CNCCCCN5CCN(C)CC5)cc4)c4cc(-c5ccccc5)ccc4n3)cc2)CC1 [Compound 12e] = 5.37

Bench note, c-MYC: entry CN(C)CCCNCc1ccc(-c2cc(-c3ccc(CNCCCN(C)C)cc3)c3cc(-c4ccccc4)ccc3n2)cc1 [Compound 13a] , its pKd = 5.42

###

Reported Selectivity Index HEK293/K562 is given for each of the following compounds.
Tested on: K562
Test: MTS cell proliferation assay, K562
Format: cell-based, human
Details: IC50 HEK293 / IC50 K562

Worked examples follow.
CN(C)CCCNCc1ccc(-c2nc(-c3ccc(CNCCCN(C)C)cc3)c3cc(-c4ccccc4)ccc3n2)cc1 [Compound 12b] = >2.14
CN(C)CCCNCc1ccc(-c2cc(-c3ccc(CNCCCN(C)C)cc3)c3cc(-c4ccccc4)ccc3n2)cc1 [Compound 13a] = >3.0

CN1CCN(CCCNCc2ccc(-c3nc(-c4ccc(CNCCCN5CCN(C)CC5)cc4)c4ccc(-c5ccccc5)cc4n3)cc2)CC1 [Compound 12i] has a reported Selectivity Index HEK293/K562 of >1.30

response.value for CN1CCN(CCCCNCc2ccc(-c3nc(-c4ccc(CNCCCCN5CCN(C)CC5)cc4)c4ccc(-c5ccccc5)cc4n3)cc2)CC1 [Compound 12j] (field: Selectivity Index HEK293/K562) = 0.61

Record summary for CN(C)CCCNCc1ccc(-c2nc(-c3ccc(CNCCCN(C)C)cc3)c3ccc(-c4ccccc4)cc3n2)cc1 [Compound 12f] : reported Selectivity Index HEK293/K562 = >2.14

Lab note: measured Selectivity Index HEK293/K562 of CN(C)CCCCNCc1ccc(-c2nc(-c3ccc(CNCCCCN(C)C)cc3)c3ccc(-c4ccccc4)cc3n2)cc1 [Compound 12g] was 0.33

###

The compounds listed here are annotated with their ΔT1/2 (°C) F21T.
Test system: human telomeric sequence F21T
Test: FRET-melting, F21T
Type: binding
Conditions: ligand 2 μM, DNA 0.2 μM, 10 mM KCl, 90 mM LiCl, pH 7.2
Procedure: FRET-melting experiments were conducted on a Stratagene MX3005P (Thermo Fisher Scientific, Illkirch-Graffenstaden, France) real-time PCR equipment in 96-well plates on the DNA sequences reported in Table 4. […] Data are presented as an average of three independent measurements, each conducted in duplicate conditions (λexc = 492 nm, λem = 516 nm, T interval = 25–95 °C, ramp: 25 °C for 5 min, then 1 °C/min, measurements every 1 °C, 8× magnification of the fluorescence signal).
Answer with the figure and its unit, nothing else.

Reference set, count: 4
CN(C)CCCCCNCc1ccc(-c2nc(-c3ccc(CNCCCCCN(C)C)cc3)c3ccc(-c4ccccc4)cc3n2)cc1 [Compound 12h] = 28.1 ± 2.3 °C
CN(C)CCCCNCc1ccc(-c2nc(-c3ccc(CNCCCCN(C)C)cc3)c3cccc(-c4ccccc4)c3n2)cc1 [Compound 12l] = 24.9 ± 0.3 °C
CN(C)CCCCNCc1ccc(-c2cc(-c3ccc(CNCCCCN(C)C)cc3)c3cc(-c4ccccc4)ccc3n2)cc1 [Compound 13b] = 13.6 ± 2.9 °C
CN(C)CCCCNCc1ccc(-c2nc(-c3ccc(CNCCCCN(C)C)cc3)c3cc(-c4ccccc4)ccc3n2)cc1 [Compound 12c] = 28.0 ± 0.4 °C

According to the records, this compound CC1CN(CCCNCc2ccc(-c3nc(-c4ccc(CNCCCN5CCNC(C)C5)cc4)c4cccc(-c5ccccc5)c4n3)cc2)CCN1 (centres unmarked) [Compound 12m] displays ΔT1/2 (°C) F21T of 23.3 ± 0.7 °C

Lab note: CN(C)CCCNCc1ccc(-c2cc(-c3ccc(CNCCCN(C)C)cc3)c3cc(-c4ccccc4)ccc3n2)cc1 [Compound 13a] gave ΔT1/2 (°C) F21T of 21.5 ± 0.4 °C

Looking up CN(C)CCCNCc1ccc(-c2nc(-c3ccc(CNCCCN(C)C)cc3)c3c(-c4ccccc4)cccc3n2)cc1 [Compound 12a] , I found its ΔT1/2 (°C) F21T recorded as 6.8 ± 0.8 °C
